{"columns": ["SAMPLE SMILES", "melting point"],
 "data": [
  ["COc1ccc(NC(=O)Nc2ccc(-c3ccc(OC)c(OC)c3)nc2C)cc1", "253 to 254 °C"],
  ["COc1ccc(-c2ccc(NC(=O)Nc3ccc(Cl)c(C(F)(F)F)c3)c(C)n2)cc1", "195 to 197 °C"],
  ["COc1ccc(-c2ccc(NC(=O)Nc3ccc(Cl)cc3)c(C)n2)cc1OC", "266 to 267 °C"],
  ["COc1ccc(-c2ccc(NC(=O)Nc3ccccc3)c(C)n2)cc1", "205 to 207 °C"],
  ["COc1ccc(-c2ccc(NC(=O)Nc3cccc(Cl)c3)c(C)n2)cc1", "212 to 214 °C"],
  ["COc1ccc(-c2ccc(NC(=O)Nc3cccc(Cl)c3)c(C)n2)cc1OC", "249 to 250 °C"],
  ["COc1ccc(-c2ccc(NC(=O)Nc3cccc(C(F)(F)F)c3)c(C)n2)cc1", "189 to 191 °C"],
  ["COc1cccc(NC(=O)Nc2ccc(-c3ccc(OC)c(OC)c3)nc2C)c1", "243 to 245 °C"],
  ["COc1ccc(-c2ccc(NC(=O)Nc3cccc(C(F)(F)F)c3)c(C)n2)cc1OC", "235 to 237 °C"],
  ["COc1ccc(NC(=O)Nc2ccc(-c3ccc(OC)cc3)nc2C)cc1", "241 to 242 °C"],
  ["COc1ccc(-c2ccc(NC(=O)Nc3ccc(Cl)cc3)c(C)n2)cc1", "231 to 232 °C"],
  ["COc1ccc(-c2ccc(NC(=O)Nc3cccc(OC)c3)c(C)n2)cc1", "227 to 230 °C"],
  ["COc1ccc(-c2ccc(NC(=O)Nc3ccccc3)c(C)n2)cc1OC", "238 to 239 °C"]
]}

###

System: BT-549
Test: NCI one-dose SRB assay (Breast Cancer)
Format: cell-based, human
Conditions: Homo sapiens; BT-549, 10 μM; read-out: Percentage growth inhibition (GI%)
Experimental: The structures of all the newly prepared pyridine-ureas 8a–n were submitted to the National Cancer Institute (NCI) Developmental Therapeutic Program. Eight compounds 8b, 8d, 8e, 8i, 8j and 8l–n were selected to be examined for their in vitro growth inhibitory activity. The anticancer assays were carried out according to the protocol of the Drug Evaluation Branch, NCI, Bethesda. […]
The compounds listed here are annotated with their inhibition at 10 µM.
QUANTITY: inhibition at 10 µM (%)

{"columns": ["SAMPLE SMILES", "TARGET OF ASSAY", "QUANTITY", "REL", "REPORTED RESULT"],
 "data": [
  ["COc1ccc(-c2ccc(NC(=O)Nc3cccc(Cl)c3)c(C)n2)cc1OC", "BT-549", "inhibition at 10 µM", "<", 10],
  ["COc1ccc(-c2ccc(NC(=O)Nc3ccc(Cl)cc3)c(C)n2)cc1", "BT-549", "inhibition at 10 µM", "<", 10],
  ["COc1ccc(NC(=O)Nc2ccc(-c3ccc(OC)c(OC)c3)nc2C)cc1", "BT-549", "inhibition at 10 µM", "=", 50],
  ["COc1cccc(NC(=O)Nc2ccc(-c3ccc(OC)c(OC)c3)nc2C)c1", "BT-549", "inhibition at 10 µM", "=", 13],
  ["COc1ccc(-c2ccc(NC(=O)Nc3cccc(C(F)(F)F)c3)c(C)n2)cc1OC", "BT-549", "inhibition at 10 µM", "=", 29],
  ["COc1ccc(-c2ccc(NC(=O)Nc3ccc(Cl)c(C(F)(F)F)c3)c(C)n2)cc1", "BT-549", "inhibition at 10 µM", "=", 34],
  ["COc1ccc(-c2ccc(NC(=O)Nc3cccc(C(F)(F)F)c3)c(C)n2)cc1", "BT-549", "inhibition at 10 µM", "=", 34]
]}

Hello, the source for this data is paper PMC6100082, in case you need it.
